# credit: PubChem BioAssay (Tox21)

Assay: qHTS assay to identify small molecule agonists of H2AX (AID 1224845)
Conditions: CHO-K1 phospho-H2AX Ser139 HTRF, 3 h; series mostly up to 154 µM
Results filed as inconclusive are left out. The source made the active and inactive calls. The call rests on the fitted dose curve; in most records, active means well fitted activation curve with a large enough effect in the signal ratio in the repeat runs (not every such curve was filed as active); inconclusive means weak or mixed curves; inactive means flat fitted curve, though single readings scatter; the % refers to the signal ratio.
Outcomes you can answer with include only these: active, inactive

Previously resolved entries follow.
compound	label value
Cc1cc(O)ccc1Cl	inactive
Nc1cc(Cl)cc(Cl)c1	inactive
CC(=O)/C=C/c1ccccc1	inactive
CC12CC1(C)C(=O)N(c1cc(Cl)cc(Cl)c1)C2=O (stereo not given)	inactive
OCCCCO	inactive

QUERY: Hi team, can someone confirm the assay call for N#CN=C(N)N ?
RESULT: inactive

QUERY: How was Cc1ccc(N)cc1 classified in this test?
RESULT: inactive

QUERY: So what was the verdict on O=C(O)CCCc1ccc(N(CCCl)CCCl)cc1 in this test?
RESULT: active

QUERY: Per the records of this test, what outcome belongs to FC(F)(F)c1ccc(Cl)cc1 ?
RESULT: inactive

QUERY: # outcome recorded in this test, key = CN1C(=O)CCS(=O)(=O)C1c1ccc(Cl)cc1 (stereo not given)
RESULT: inactive
